# SYSTEM_TESTED: YU2 gp120, soluble monomer (HIV-1 isolate YU2 (clade B), UniProt P35961)
# METHOD: ELISA; Env glycoprotein coated at 2 ug/ml in PBS pH 7.4 overnight at 4 C; IgG 5-fold serially diluted, 1 hour at RT; HRP goat anti-human IgG (H+L)
# EXPERIMENTAL_CONDITIONS: both partners purified
MEASURED_QUANTITY: binding result

[[record]]
binder = "GEBT403, mature IgG (antibody, V domains shown, also called mature GEBT403) VH: EVQLVQSGAEVKKPGSSVKVSCKASGYTFTDYYMHWVRQAPGQGLEWMGEINPKTGGTNYAQKFQGRVTMTRDTSTSTAYMELSSLRSEDTAIYSCARGGQRLIPLRRFYFYYWGQGVLVTVSS VL: QSVLTQPPSVSGAPGQKVTISCTGSSSNIGGYDVHWYQQLPGMAPKLLIYDNNERPSGISDRFSGSKSGTSASLAITGLQTEDEADYYCQSYDSSMNAWVFGGGTRLTVL"
test_value = "binds"

[[record]]
binder = "GEBT414, mature IgG (antibody, V domains shown) VH: EVQLVQSGAEVKRPGESLRISCKTSGYSFTGSWISWVRQMPGKGLDWMGNIYPGDSDTRYNPSFQGHVTISADKSISTTYLQWSSLKASDTATYYCAKGGGITIFGLLHYPLDSWGQGVVVTVSS VL: DIQMTQSPSSLSASVGDTVTITCRASQGINNWLAWYQQKPGKAPKLLIYKASSLQSGVPSRFSGSGSGTDFTLTISSLQSEDFATYYCQQYNSGPLTFGGGTKVEIK"
test_value = "binds"

[[record]]
binder = "GEBT412, mature IgG (antibody, V domains shown) VH: QVQLVESGGGLVQPGGSLRLACAASGFIFSNHGMHWVRQAPGKGLEWVAVIWYDGSEKYYADSVKDRFTISRDNSKNMLYLQMNNLKLVDTAVYYCARRGCTGSGCYLYYYGLDSWGQGVVVTVSS VL: DIQMTQSPSSLSASVGDTVTITCRASQGISSHLNWFQQKPGKAPKLLIYAATTLQSGVPSRFSGSGSGTDFTLTISSLQPEDFATYYCLQHNFYPYSFGQGTKVEIK"
test_value = "binds"

[[record]]
binder = "GEBT391, mature IgG (antibody, V domains shown) VH: QVQLVESGGGLVQPGGSLRLSCAASGFTFSSYGMHWVRQAPGKGLEWVAVIWFDGSEKYYVDSVKDRFTISRDNSKNMLYLQMNNLKLDDTAVYYCARRGCTGSGCYLYYYALDSWGQGVVVTVSS VL: DIQMTQSPSSLSASVGDTVTITCRASQGISSYLNWFQQKPGKAPKLLIYAATTLQSGVPSRFSGSGSGTDFTLTISSLQPEDFATYYCLQHNFYPYSFGQGTKVEIK"
test_value = "binds"

[[record]]
binder = "GEBT404, mature IgG (antibody, V domains shown) VH: EVQLVESGGGLAKPGGSLRLSCAASGFTFSNYWMYWVRQAPGKGLEWISAINSAGSRTYYPDSVKGRFTISRENAKNTLYLQMDSLRAEDTAVYYCAKGRIAIFGLVITYFDYWGQGVLVTVSS VL: DIQMTQSPSSLSASVGDRVTITCRASQGITNDLAWYQQKPGETPKLLIYDASSLQSGIPSRFSGSGSGTDFTLTISSLQPEDFATYYCQHYYSTPPTFGGGTKVEIK"
test_value = "binds"

